Tested on: Saccharomyces cerevisiae
Assay: Antifungal activity against Saccharomyces cerevisiae after 24 hrs by NCCLS micro broth dilution method
Assay type: functional
Measured Parameter: MIC (mg/L)
Respond numerically; units are mg/L and should not be typed.

MIC measured on "Fc1ccccc1Cn1cc(COCc2c(-c3ccccc3)nc3sc4ccccc4n23)nn1" = 64

Given item "CCCCCCCn1cc(COCc2c(-c3ccccc3)nc3sc4ccccc4n23)nn1" , the value recorded as its MIC is 32

MIC in this record for "CCOc1ccc2c(c1)sc1nc(-c3ccccc3)c(COCc3cn(Cc4ccc([N+](=O)[O-])cc4)nn3)n12" : 16

Record summary for "O=[N+]([O-])c1ccc(Cn2cc(COCc3c(-c4ccccc4)nc4sc5ccccc5n34)nn2)cc1" : reported MIC = 32

get_value(item= "CCOc1ccc2c(c1)sc1nc(-c3ccccc3)c(COCc3cn(Cc4ccccc4Cl)nn3)n12" , readout=MIC) returns 64

###

Test system: Saccharomyces cerevisiae
Experiment: Antifungal activity against Saccharomyces cerevisiae after 24 hrs by NCCLS micro broth dilution method
Assay type: functional
Measured Parameter: MIC (mg/L)
Could you give me the number in mg/L? Just the number is fine.

So, "CCOc1ccc2c(c1)sc1nc(-c3ccccc3)c(COCc3cn(Cc4ccccc4F)nn3)n12" ? Its MIC was 64

Item: "CCOc1ccc2c(c1)sc1nc(-c3ccccc3)c(COCc3cn(Cc4ccc(F)cc4)nn3)n12" | MIC: 32

Looking up "CCCCCn1cc(COCc2c(-c3ccccc3)nc3sc4cc(OCC)ccc4n23)nn1" , I see its MIC listed as 8

Entry under test: "Clc1ccccc1Cn1cc(COCc2c(-c3ccccc3)nc3sc4ccccc4n23)nn1" . Its MIC was 64

MIC reported for this compound "CCOc1ccc2c(c1)sc1nc(-c3ccccc3)c(COCc3cn(Cc4cccc(F)c4)nn3)n12" : 32

Quick note, MIC for "Clc1cccc(Cn2cc(COCc3c(-c4ccccc4)nc4sc5ccccc5n34)nn2)c1" landed at 64

So, "Fc1cccc(Cn2cc(COCc3c(-c4ccccc4)nc4sc5ccccc5n34)nn2)c1" ? Its MIC was 32

MIC reported for this compound "Clc1ccc(Cn2cc(COCc3c(-c4ccccc4)nc4sc5ccccc5n34)nn2)c(Cl)c1" : 64

Measured MIC, "CCOc1ccc2c(c1)sc1nc(-c3ccccc3)c(COCc3cn(Cc4cccc(Cl)c4)nn3)n12" : 64

###

System: Saccharomyces cerevisiae
Assay: Antifungal activity against Saccharomyces cerevisiae after 24 hrs by NCCLS micro broth dilution method
Format: functional
Measured Parameter: MIC (µg/mL)
Numeric only. Scale: µg/mL

The compound listed as "OC(Cn1cncn1)(Cn1cncn1)c1ccc(F)cc1F" has a reported MIC of 16

Please fill in: MIC reported for "Fc1ccc(Cn2cc(COCc3c(-c4ccccc4)nc4sc5ccccc5n34)nn2)cc1" = 64

Given item "CCOc1ccc2c(c1)sc1nc(-c3ccccc3)c(COCc3cn(Cc4ccc(Cl)c(Cl)c4)nn3)n12" , the value recorded as its MIC is 16

Form field MIC, entry "CCCCCCn1cc(COCc2c(-c3ccccc3)nc3sc4cc(OCC)ccc4n23)nn1" : 32

get_value(item= "CCCCCn1cc(COCc2c(-c3ccccc3)nc3sc4ccccc4n23)nn1" , readout=MIC) returns 32

###

Test system: Saccharomyces cerevisiae
Experiment: Antifungal activity against Saccharomyces cerevisiae after 24 hrs by NCCLS micro broth dilution method
Format: functional
Answer each item with its documented MIC.
Your answer should be a number followed by the unit of measure.

Quick note, MIC for "CCCCCCCn1cc(COCc2c(-c3ccccc3)nc3sc4cc(OCC)ccc4n23)nn1" landed at 64 µg/mL

Measured MIC, "Clc1ccc(Cn2cc(COCc3c(-c4ccccc4)nc4sc5ccccc5n34)nn2)cc1Cl" : 64 µg/mL

Reported MIC ( "Clc1ccc(Cn2cc(COCc3c(-c4ccccc4)nc4sc5ccccc5n34)nn2)cc1" ) = 16 µg/mL

Value of measured MIC for the entry "CCOc1ccc2c(c1)sc1nc(-c3ccccc3)c(COCc3cn(Cc4ccc(Cl)cc4)nn3)n12" : 64 µg/mL

"CCCCCCn1cc(COCc2c(-c3ccccc3)nc3sc4ccccc4n23)nn1" has a reported MIC of 8 µg/mL

MIC measured on "CCOc1ccc2c(c1)sc1nc(-c3ccccc3)c(COCc3cn(Cc4ccc(Cl)cc4Cl)nn3)n12" = 32 µg/mL

Reference source: ChEMBL document CHEMBL4196079
